measured_target: human norepinephrine transporter (hNET) (Homo sapiens, UniProt P23975)
Sequence (P23975 whole entry): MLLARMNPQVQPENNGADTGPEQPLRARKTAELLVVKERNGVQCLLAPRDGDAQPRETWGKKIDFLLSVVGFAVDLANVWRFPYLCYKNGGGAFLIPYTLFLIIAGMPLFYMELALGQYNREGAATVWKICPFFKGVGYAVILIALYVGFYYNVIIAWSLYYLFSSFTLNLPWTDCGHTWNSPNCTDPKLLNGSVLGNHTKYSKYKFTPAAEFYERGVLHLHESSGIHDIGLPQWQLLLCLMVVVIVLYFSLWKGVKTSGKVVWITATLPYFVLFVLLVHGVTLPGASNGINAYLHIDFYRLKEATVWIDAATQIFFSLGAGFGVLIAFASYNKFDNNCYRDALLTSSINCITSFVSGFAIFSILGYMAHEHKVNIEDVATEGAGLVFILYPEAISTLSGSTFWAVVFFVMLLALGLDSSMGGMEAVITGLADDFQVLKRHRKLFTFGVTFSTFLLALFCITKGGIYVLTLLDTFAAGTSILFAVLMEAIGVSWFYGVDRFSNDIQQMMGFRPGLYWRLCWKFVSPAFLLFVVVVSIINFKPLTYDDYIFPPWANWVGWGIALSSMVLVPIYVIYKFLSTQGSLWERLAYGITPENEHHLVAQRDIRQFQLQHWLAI
assay_details: hNET uptake, Protocol B: cell based norepinephrine reuptake assay using recombinant hNET (MDCK-Net6 cells)
particulars: NE uptake (Protocol B) IC50 (nM), MDCK-Net6 cells, 3H-NE 16 nM
Counter-ions that a name gives are not always drawn.
quantity_measured: IC50 (nM)

In the examples that follow, each entry is paired with its recorded IC50.
>  <compound>
CNCCCN1c2ccccc2N(c2ccc(C)cc2)S1(=O)=O

>  <units_of_measure>
nM

>  <IC50>
35.7

$$$$
>  <compound>
CN(C)CCCCCCN1c2ccccc2N(c2ccccc2F)S1(=O)=O

>  <units_of_measure>
nM

>  <IC50>
1200

$$$$
>  <compound>
CNCCCN1c2ccccc2N(c2ccccc2OC)S1(=O)=O

>  <units_of_measure>
nM

>  <IC50>
12.6

$$$$
>  <compound>
CNCCCN1c2ccccc2N(c2ccc(OC)nc2)S1(=O)=O [Example 28, hydrochloride]

>  <units_of_measure>
nM

>  <IC50>
1900

$$$$

[a] CNCCCN1c2ccccc2N(c2cnccc2C)S1(=O)=O [Example 33, hydrochloride]
[b] O=S1(=O)N(CCCCNC2CCC2)c2ccccc2N1c1c(F)cccc1F [Example 124, hydrochloride]
[c] CNCCCN1c2ccccc2N(c2cccc3ccccc23)S1(=O)=O
[d] O=S1(=O)N(CCCCNC2CC2)c2ccccc2N1c1c(F)cccc1F [Example 86, hydrochloride]
[e] CNCCCN1c2ccccc2N(c2cccc(OC)c2)S1(=O)=O
Query block: Would you mind ranking these compounds by ascending IC50? As an answer, provide the labels arranged in the order called for.
Result block: e, d, b, a, c

[A] O=S1(=O)N(CCCNC2CCC2)c2ccccc2N1c1c(F)cccc1F [Example 128, hydrochloride]
[B] CN(C)CCCN1c2ccccc2N(c2ccc(F)cc2F)S1(=O)=O [Example 118, hydrochloride]
[C] NCCCN1c2cccc(F)c2N(c2ccccc2F)S1(=O)=O [Example 74, hydrochloride]
[D] CC(C)NCCCCN1c2ccccc2N(c2c(F)cccc2F)S1(=O)=O [Example 123, hydrochloride]
[E] CCNCCCCN1c2ccccc2N(c2c(F)cccc2F)S1(=O)=O [Example 122, hydrochloride]
Query block: Order field: IC50 | Direction: descending (largest first) As an answer, provide the labels arranged in the order called for.
Result block: D, A, B, E, C

[1] O=S1(=O)N(CCCNC2CC2)c2ccccc2N1c1ccccc1
[2] CNCCCN1c2ccccc2N(c2cccc(C)n2)S1(=O)=O [Example 32, hydrochloride]
[3] CNCCCN1c2cc(F)ccc2N(c2ccccc2)S1(=O)=O
Query block: Would you mind ranking these compounds by ascending IC50? As an answer, provide the labels arranged in the order called for.
Result block: 3, 1, 2

* * *

measured_target: Dopamine Transporter (hDAT) (Homo sapiens, UniProt Q01959)
Sequence (Q01959 whole entry): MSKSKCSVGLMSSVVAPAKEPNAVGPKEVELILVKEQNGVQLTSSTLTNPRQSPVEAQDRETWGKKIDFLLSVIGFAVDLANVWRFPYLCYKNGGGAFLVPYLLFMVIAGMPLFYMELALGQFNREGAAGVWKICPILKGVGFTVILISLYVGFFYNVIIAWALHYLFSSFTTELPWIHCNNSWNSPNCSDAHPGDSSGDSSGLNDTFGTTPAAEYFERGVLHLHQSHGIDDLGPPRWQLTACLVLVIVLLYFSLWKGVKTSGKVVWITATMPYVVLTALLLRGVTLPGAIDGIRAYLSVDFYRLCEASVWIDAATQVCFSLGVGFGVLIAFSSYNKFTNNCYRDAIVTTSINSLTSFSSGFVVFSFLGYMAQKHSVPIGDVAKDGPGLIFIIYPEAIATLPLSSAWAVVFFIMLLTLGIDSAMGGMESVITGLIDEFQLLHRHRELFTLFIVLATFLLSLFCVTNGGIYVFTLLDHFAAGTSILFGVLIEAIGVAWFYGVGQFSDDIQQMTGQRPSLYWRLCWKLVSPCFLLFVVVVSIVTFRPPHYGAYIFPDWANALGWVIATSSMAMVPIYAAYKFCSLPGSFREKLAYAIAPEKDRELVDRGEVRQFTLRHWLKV
quantity_measured: IC50 (nM)

In the examples that follow, each entry is paired with its recorded IC50.
>  <molecule>
CNCCCN1c2ccccc2N(c2ccccc2C)S1(=O)=O [drawing 168]

>  <measured_target>
Dopamine Transporter (hDAT) (Homo sapiens, UniProt Q01959)

>  <IC50 / nM>
276

$$$$
>  <molecule>
CCNCCCN1c2ccccc2N(c2ccccc2F)S1(=O)=O [drawing 170]

>  <measured_target>
Dopamine Transporter (hDAT) (Homo sapiens, UniProt Q01959)

>  <IC50 / nM>
665

$$$$
>  <molecule>
CNCCCN1c2ccccc2N(c2ccc(F)cc2F)S1(=O)=O [drawing 165]

>  <measured_target>
Dopamine Transporter (hDAT) (Homo sapiens, UniProt Q01959)

>  <IC50 / nM>
366

$$$$
>  <molecule>
CNCCCCN1c2ccccc2N(c2c(F)cccc2F)S1(=O)=O [drawing 162]

>  <measured_target>
Dopamine Transporter (hDAT) (Homo sapiens, UniProt Q01959)

>  <IC50 / nM>
9330

$$$$
>  <molecule>
CNCCCN1c2ccccc2N(c2ccc(F)c(F)c2)S1(=O)=O [drawing 163]

>  <measured_target>
Dopamine Transporter (hDAT) (Homo sapiens, UniProt Q01959)

>  <IC50 / nM>
122

$$$$
>  <molecule>
CNCCCCN1c2ccccc2N(c2ccccc2)S1(=O)=O [drawing 158]

>  <measured_target>
Dopamine Transporter (hDAT) (Homo sapiens, UniProt Q01959)

>  <IC50 / nM>
211

$$$$
>  <molecule>
CNCCCN1c2ccccc2N(c2cc(F)ccc2F)S1(=O)=O [drawing 164]

>  <measured_target>
Dopamine Transporter (hDAT) (Homo sapiens, UniProt Q01959)

>  <IC50 / nM>
479

$$$$

[A] CNCCCN1c2ccccc2N(c2ccccc2)S1(=O)=O [drawing 157]
[B] CNCCCN1c2ccccc2N(c2cccc(OC)c2)S1(=O)=O [drawing 169]
[C] CNCCCCN1c2ccccc2N(c2ccc(F)cc2)S1(=O)=O [drawing 167]
Query block: Would you mind ranking these molecules by ascending IC50? As an answer, provide the labels arranged in the order called for.
Result block: C, B, A
(C: 52.8 nM, B: 178 nM, A: 598 nM)

* * *

measured_target: human norepinephrine transporter (hNET) (Homo sapiens, UniProt P23975)
assay_details: hNET uptake, Protocol B: cell based norepinephrine reuptake assay using recombinant hNET (MDCK-Net6 cells)
particulars: NE uptake (Protocol B) IC50 (nM), MDCK-Net6 cells, 3H-NE 16 nM
Structures can show the parent of a compound that is named as a salt.
quantity_measured: IC50 (nM)

>  <compound>
CNCCCCN1c2ccccc2N(c2ccc(C)cc2F)S1(=O)=O

>  <units_of_measure>
nM

>  <IC50>
26

$$$$

[A] CNCCCN1c2c(F)cccc2N(c2ccccc2F)S1(=O)=O
[B] CNCCCN1c2ccccc2N(c2ccc(Cl)cc2F)S1(=O)=O
[C] O=S1(=O)N(CCCNC2CC2)c2ccccc2N1c1c(F)cccc1F [Example 84, hydrochloride]
[D] CNCCCCCCN1c2ccccc2N(c2ccccc2F)S1(=O)=O
[E] CNCCCN1c2ccccc2N(c2ccc(Cl)cc2C)S1(=O)=O
Query block: Would you mind ranking these compounds by ascending IC50? As an answer, provide the labels arranged in the order called for.
Result block: A, C, B, E, D

* * *

measured_target: human norepinephrine transporter (hNET) (Homo sapiens, UniProt P23975)
assay_details: hNET uptake, Protocol B: cell based norepinephrine reuptake assay using recombinant hNET (MDCK-Net6 cells)
particulars: NE uptake (Protocol B) IC50 (nM), MDCK-Net6 cells, 3H-NE 16 nM
Where a name gives a salt, the structure may show the parent alone.
quantity_measured: IC50 (nM)

>  <molecule>
O=S1(=O)N(CCCNC2CCCCC2)c2ccccc2N1c1c(F)cccc1F [Example 130, hydrochloride]

>  <quantity_measured>
IC50

>  <units_of_measure>
nM

>  <endpoint_value>
224

$$$$

[P] CCNCCCN1c2ccccc2N(c2ccccc2F)S1(=O)=O
[Q] CNCCCN1c2ccccc2N(c2ccc(F)cc2)S1(=O)=O
[R] CNCCCCCN1c2ccccc2N(c2ccc(F)cc2Cl)S1(=O)=O [Example 89, hydrochloride]
[S] CNCCCN1c2ccccc2N(c2cccc(F)c2)S1(=O)=O
Query block: Order field: IC50 | Direction: descending (largest first) As an answer, provide the labels arranged in the order called for.
Result block: R, S, Q, P
(R: 2110 nM, S: 12.2 nM, Q: 6.87 nM, P: 2.56 nM)

* * *

measured_target: human norepinephrine transporter (hNET) (Homo sapiens)
assay_details: hNET uptake, Protocol B: cell based norepinephrine reuptake assay using recombinant hNET (MDCK-Net6 cells)
particulars: NE uptake (Protocol B) IC50 (nM), MDCK-Net6 cells, 3H-NE 16 nM
Structures can show the parent of a compound that is named as a salt.
quantity_measured: IC50 (nM)

In the examples that follow, each entry is paired with its recorded IC50.
>  <compound>
CNCCCN1c2ccccc2N(c2ccc(Cl)cc2)S1(=O)=O [Example 1]

>  <measured_target>
human norepinephrine transporter (hNET) (Homo sapiens)

>  <units_of_measure>
nM

>  <IC50>
20.5

$$$$
>  <compound>
CNCCCCCN1c2ccccc2N(c2ccccc2F)S1(=O)=O [Example 66]

>  <measured_target>
human norepinephrine transporter (hNET) (Homo sapiens)

>  <units_of_measure>
nM

>  <IC50>
14.2

$$$$
>  <compound>
CNCCCN1c2ccccc2N(c2ccc(C)cn2)S1(=O)=O [Example 26, hydrochloride]

>  <measured_target>
human norepinephrine transporter (hNET) (Homo sapiens)

>  <units_of_measure>
nM

>  <IC50>
57.1

$$$$
>  <compound>
CNCCCN1c2ccccc2N(c2ccccc2OC(F)(F)F)S1(=O)=O [Example 50, hydrochloride]

>  <measured_target>
human norepinephrine transporter (hNET) (Homo sapiens)

>  <units_of_measure>
nM

>  <IC50>
190

$$$$
>  <compound>
CNCCCN1c2ccccc2N(c2cc(C)ccn2)S1(=O)=O [Example 30, hydrochloride]

>  <measured_target>
human norepinephrine transporter (hNET) (Homo sapiens)

>  <units_of_measure>
nM

>  <IC50>
15.3

$$$$
>  <compound>
CCNCCCN1c2ccccc2N(c2ccc(F)c(F)c2F)S1(=O)=O [Example 112]

>  <measured_target>
human norepinephrine transporter (hNET) (Homo sapiens)

>  <units_of_measure>
nM

>  <IC50>
2770

$$$$
>  <compound>
CNCCCN1c2ccccc2N(c2ccc(F)cc2C)S1(=O)=O [Example 62]

>  <measured_target>
human norepinephrine transporter (hNET) (Homo sapiens)

>  <units_of_measure>
nM

>  <IC50>
50.9

$$$$
>  <compound>
NCCCCN1c2ccccc2N(c2ccccc2F)S1(=O)=O [Example 58]

>  <measured_target>
human norepinephrine transporter (hNET) (Homo sapiens)

>  <units_of_measure>
nM

>  <IC50>
3270

$$$$

[A] O=S1(=O)N(CCCNC2CC2)c2ccccc2N1c1ccc(F)cc1F [Example 85, hydrochloride]
[B] CNCCCN1c2ccccc2N(c2cccc(Cl)c2)S1(=O)=O [Example 68, hydrochloride]
Query block: Returns the identifier with the smallest measured IC50 among A and B . Field: selected label. Fill in the label of the entry you choose.
Result block: B
(B: 84.1 nM, A: 203 nM)

[P] CNCCCN1c2ccccc2N(c2ccc(F)cc2OC)S1(=O)=O [Example 64]
[Q] CNCCCN1c2cccc(F)c2N(c2ccccc2F)S1(=O)=O [Example 73, hydrochloride]
Query block: Could you please tell me which of these two has the higher IC50: P or Q ? Field: selected label. Fill in the label of the entry you choose.
Result block: P
